Where do these numbers come from? They come from paper PMC10786891.

# Measured Target: T1, EsCas13d, nuclease-dead (Eubacterium siraeum, UniProt B0MS50, R295A;H300A;R849A;H854A)
# T1 sequence: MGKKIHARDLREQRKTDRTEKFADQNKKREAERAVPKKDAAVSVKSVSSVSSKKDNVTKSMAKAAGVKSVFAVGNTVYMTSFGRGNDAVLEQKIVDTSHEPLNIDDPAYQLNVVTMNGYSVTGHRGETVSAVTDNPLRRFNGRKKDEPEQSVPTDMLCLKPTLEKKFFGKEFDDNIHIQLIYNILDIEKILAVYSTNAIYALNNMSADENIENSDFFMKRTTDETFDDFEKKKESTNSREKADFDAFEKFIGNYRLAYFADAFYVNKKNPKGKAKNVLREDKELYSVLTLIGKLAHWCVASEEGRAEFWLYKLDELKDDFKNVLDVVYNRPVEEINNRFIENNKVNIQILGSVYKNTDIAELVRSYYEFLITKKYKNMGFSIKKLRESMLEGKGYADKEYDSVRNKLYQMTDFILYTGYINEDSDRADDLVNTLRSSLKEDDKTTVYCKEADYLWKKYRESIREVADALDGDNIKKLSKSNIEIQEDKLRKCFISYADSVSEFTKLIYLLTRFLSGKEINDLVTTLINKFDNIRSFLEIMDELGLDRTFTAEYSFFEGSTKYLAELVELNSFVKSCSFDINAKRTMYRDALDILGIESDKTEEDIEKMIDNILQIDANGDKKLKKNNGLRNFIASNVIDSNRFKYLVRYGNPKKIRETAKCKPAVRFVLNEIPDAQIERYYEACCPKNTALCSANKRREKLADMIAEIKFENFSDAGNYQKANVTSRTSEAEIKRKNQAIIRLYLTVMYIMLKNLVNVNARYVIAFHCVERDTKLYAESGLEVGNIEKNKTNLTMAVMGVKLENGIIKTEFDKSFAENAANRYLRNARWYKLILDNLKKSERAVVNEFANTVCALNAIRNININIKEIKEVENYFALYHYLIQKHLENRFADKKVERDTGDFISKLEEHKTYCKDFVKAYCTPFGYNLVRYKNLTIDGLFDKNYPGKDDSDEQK
# Assay Details: crRNA (strand 1, pre-loaded); Mg2+; 40 mM Tris-HCl pH 7.5, 150 mM NaCl, 6 mM MgCl2, 1 mM DTT, 0.1% Tween-20, 0.2 mg/ml BSA; 25 C; 10 min per concentration, then washed
# Experimental Setup: tags: His6-TwinStrep-SUMO cleaved; N-terminal SNAP kept (SNAP-Surface 488); label: 3' end held by stalled T7 RNA polymerase
Provide the reported Kd of each item.
Could you give me the number in nM? Just the number is fine.

What measured Kd goes with target 3 C1A,U22A (mixed) RNA 1: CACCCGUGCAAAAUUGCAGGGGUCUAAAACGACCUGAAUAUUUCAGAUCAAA RNA 2: GGGAAUGGAUCCACAUCUACGAAUUCGUUAUUGAUCUGAAAUAUUCAGGUAUGCAGAUCGGAAGAGCACACGU ? 13.6

Request: target 1 MT 5'PFS GUC 3'PFS UCC (mixed) RNA 1: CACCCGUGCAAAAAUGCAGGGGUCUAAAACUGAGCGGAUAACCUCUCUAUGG RNA 2: GGGAAUGGAUCCACAUCUACGAAUUCGUCCCAUAGAGAGGUUAUCCGCUCAUCCAGAUCGGAAGAGCACACGU 11.2

Request: target 1 insA 3' of 13,insC 3' of 10 (mixed) RNA 1: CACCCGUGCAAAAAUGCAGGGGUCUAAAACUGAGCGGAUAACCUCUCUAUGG RNA 2: GGGAAUGGAUCCACAUCUACGAAUUCGUACCAUAGAGAGAGUUCAUCCGCUCACCGAGAUCGGAAGAGCACACGU 9.2

Request: target 1 MT 5'PFS AAG 3'PFS CGA (mixed) RNA 1: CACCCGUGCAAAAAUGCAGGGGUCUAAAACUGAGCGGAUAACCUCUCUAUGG RNA 2: GGGAAUGGAUCCACAUCUACGAAUUCAAGCCAUAGAGAGGUUAUCCGCUCACGAAGAUCGGAAGAGCACACGU 38
